Tested on: HepG2
protocol-summary: GSK_TCMDC: Percent inhibition of human HepG2 cell line. Test compounds present at 10uM.
Assay type: functional
# label = Satisfied if Inhibition < 10% else Not satisfied

Worked cases, answers included:
| compound | qualitative-label |
| --- | --- |
| CC(=O)c1ccc(Nc2c(C(N)=O)cnc3cc(-c4c(C)noc4C)ccc23)cc1 | Satisfied |
| CCCC(CNCc1ccc(Cl)c(C(F)(F)F)c1)CNc1nc2cnccc2[nH]1.Cl (stereo not given) | Not satisfied |
| COc1cc(CCNc2nc(NCc3cccc4ccccc34)nc(N3CCC(N)CC3)n2)ccc1O.O=C(O)C(F)(F)F | Not satisfied |
| CN(C)CCN(C)Cc1cccc(-c2ccc3c(Nc4cc(O)c(Cl)cc4F)ccnc3c2)c1 | Not satisfied |

API: the following record is the query input.
Inquiry: I'd appreciate it if you could check whether O=C(/C=C/c1ccc(Cl)c(Cl)c1)NCCCCCN1CCCC(C(=O)Nc2cccc(Cl)c2)C1 (stereo not given) has Inhibition smaller than 10%.
Reply text: Not satisfied

----------
Tested on: Plasmodium falciparum
protocol-summary: GSK_TCMDC: Inhibition of Plasmodium falciparum Dd2 in whole red blood cells, using parasite LDH activity as an index of growth. Test compounds present at 2uM
Type: functional
The following compounds are shown together with reported Inhibition values.
Only the number, expressed in %, is required.

Example results:
| compound | tested-target | endpoint-label | scale-unit | reported |
| --- | --- | --- | --- | --- |
| C#CCNCc1ccc(-c2ccc(-c3nc4cc(C(F)(F)F)ccc4[nH]3)s2)cc1.O=C(O)C(F)(F)F | Plasmodium falciparum | Inhibition | % | 28 |
| CCCc1ccc(S(=O)(=O)NC2CCN(c3ccnc(Nc4ccc(F)cc4)n3)C2)cc1 (centres undefined) | Plasmodium falciparum | Inhibition | % | 56 |
| CCN(CC)CCN(Cc1ccc(-c2ccc(C(F)(F)F)cc2)cc1)C(=O)Cn1c(CCc2cc(F)cc(F)c2F)nc(=O)c2ccccc21.O=C(O)C(O)C(O)C(=O)O | Plasmodium falciparum | Inhibition | % | 77 |

Inquiry: Param readout= Inhibition; system= Plasmodium falciparum; entry= `O=C(/C=C/C=C/c1ccccc1)NCCCCCN1CCC(c2c[nH]c3ccccc23)CC1` ; returns value.
Reply text: 7

----------
System: Plasmodium falciparum
protocol-summary: GSK_TCMDC: Inhibition of Plasmodium falciparum Dd2 in whole red blood cells, using parasite LDH activity as an index of growth. Test compounds present at 2uM
Format: functional
Note to self: values exactly at 30% are T. So Inhibition at or above 30% is T, below is F.

| compound | qualitative-label |
| --- | --- |
| CCN(Cc1ccc(-c2ccc(C(F)(F)F)cc2)cc1)C(=O)Cn1c(SCc2cccc(F)c2F)cc(=O)c2cc(CN3CCCCC3)ccc21.Cl | T |

Inquiry: Inhibition >= 30% for CN(Cc1cccc(F)c1)C1CCN(c2cc(NC(=O)c3ccc(F)cc3)ccn2)C1.O=C(O)C(F)(F)F (configuration not stated) ?
Reply text: F

Inquiry: What about `COC(=O)c1ccc2nc(-c3cc(-c4cccc(-c5ccccc5)c4)cnc3N)[nH]c2c1` ?
Reply text: T

Inquiry: Consider next the compound CCCC[C@@H](C(=O)NCCc1ccc(Cl)cc1)N1C(=O)CCC1C(=O)Nc1ccc(Cl)c(Cl)c1 (some centres not stated) in the same way.
Reply text: F
